Molecular target: Kir4.1 (Homo sapiens)
Construct: host or cells: CHO-K1
Sequence (P78508 1-379): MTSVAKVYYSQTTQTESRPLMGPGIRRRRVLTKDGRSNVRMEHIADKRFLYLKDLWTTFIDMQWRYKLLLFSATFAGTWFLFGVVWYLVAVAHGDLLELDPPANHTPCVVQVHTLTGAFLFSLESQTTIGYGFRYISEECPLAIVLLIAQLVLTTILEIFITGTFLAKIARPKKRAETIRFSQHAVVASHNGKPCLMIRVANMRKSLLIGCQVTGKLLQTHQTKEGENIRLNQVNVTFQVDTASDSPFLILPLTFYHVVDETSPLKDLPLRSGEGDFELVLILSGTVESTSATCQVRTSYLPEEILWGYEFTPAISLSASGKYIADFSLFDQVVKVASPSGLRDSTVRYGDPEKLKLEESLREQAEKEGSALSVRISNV
Test: Whole-cell patch clamp, Kir4.1 currents in transfected CHO-K1 cells
Assay type: cell-based
Details: CHO-K1, 1 μM; +50 mV; read-out: Kir4.1 Inhibition ± SD (%) at 1 μM, +50 mV
Excerpt: Plasmids encoding WT human potassium channels Kir1.1, Kir2.1, Kir2.2, Kir4.1, and Kir4.2 were obtained from the Beijing Genomics Institute. All point mutations were constructed using the QuickChange II Site‐Directed Mutagenesis Kit (Stratagene) and subsequently verified by sequencing. CHO‐K1 cells were maintained in DMEM/F12 growth medium containing 10% fetal bovine serum. […]
Here, each record is paired with measured inhibition at 1 µM data.
Write it as a number; the unit % goes unstated.

Some solved entries appear below for comparison.
molecule: c1ccc2c(c1)oc1ccc(Nc3ccnc(NCCCN4CCCCCC4)n3)cc12 [JX3249]
inhibition at 1 µM / %: 92.4

molecule: OC(CNc1nccc(Nc2ccc3oc4ccccc4c3c2)n1)CN1CCOCC1 (stereo not drawn) [JX3234]
inhibition at 1 µM / %: 11.2

molecule: c1ccc2c(c1)oc1ccc(Nc3cc(NCCCN4CCOCC4)ncn3)cc12 [JX3222]
inhibition at 1 µM / %: 5.55

molecule: CC1(C)C2CN(CCCNc3nccc(Nc4ccc5oc6ccccc6c5c4)n3)CC21 (stereo not drawn) [JX3240]
inhibition at 1 µM / %: 90

molecule: c1ccc2c(c1)oc1ccc(Nc3ccnc(NCCCN4CCSCC4)n3)cc12 [JX3243]
inhibition at 1 µM / %: -1.39

Q: Consider the molecule c1ccc2c(c1)oc1ccc(Nc3cncc(NCCCN4CCOCC4)n3)cc12 [JX3224] . State its measured inhibition at 1 µM.
Ans: 29.1

Q: Consider the molecule c1ccc2c(c1)oc1ccc(Nc3ccnc(NCC4(CN5CCOCC5)CC4)n3)cc12 [JX3235] . State its measured inhibition at 1 µM.
Ans: 10.8

Q: Consider the molecule c1ccc2c3c([nH]c2c1)CCC(Nc1ccnc(NCCCN2CCOCC2)n1)C3 (stereo not drawn) [JX3213] . State its measured inhibition at 1 µM.
Ans: 55

Q: Consider the molecule c1ccc2c(c1)oc1ccc(Nc3ccnc(NCCCN4CCCOCC4)n3)cc12 [JX3250] . State its measured inhibition at 1 µM.
Ans: 44

Q: Consider the molecule O=C(NCCNc1nccc(Nc2ccc3oc4ccccc4c3c2)n1)N1CCOCC1 [JX3236] . State its measured inhibition at 1 µM.
Ans: 5

Q: Consider the molecule COc1cnc(NCCCN2CCOCC2)nc1Nc1ccc2oc3ccccc3c2c1 [JX3218] . State its measured inhibition at 1 µM.
Ans: 1.15
